assay: splicing luciferase reporter signal modulators, primary screen, spliceosome inhibition project, cell-based, HEK293, splice +/- reporter (AID 1101); conditions: luminescence, 24 h, higher = more signal, called active from +8 up or from −8 down;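 also: HEK293 cells carrying a splicing-competent luciferase reporter gene; test concentration not given here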
So basically every entry gets a class from its z-score, ranges being low class (below -1), middle class (-1 to below 0.08), high class (0.08 or more)

[[record]]
compound = "COc1ccc(C#Cc2ccc3c(c2)[C@]2(C(=O)N3)[C@H](C(=O)NC[C@H](O)c3ccccc3)[C@H]3C(=O)O[C@H](c4ccccc4)[C@H](c4ccccc4)N3[C@@H]2c2ccccc2OCCO)cc1"
assignedclass = "middle class"

[[record]]
compound = "N#Cc1ccc(NN2C(C(O)c3ccc([N+](=O)[O-])cc3)C=CC3C(=O)N(c4ccccc4)C(=O)C32)cc1 (stereo not given)"
assignedclass = "high class"

[[record]]
compound = "O=C1C2C=CC(C(O)c3cccs3)N(Nc3ccccc3F)C2C(=O)N1c1ccccc1 (stereo not given)"
assignedclass = "middle class"

[[record]]
compound = "CCOC(=O)C[C@H]1[C@H](OC(=O)c2ccc(C(=O)c3ccccc3)cc2)[C@@H](NC(=O)C2CCCCC2)c2cc(OCCCO)ccc2N1C(=O)c1ccccc1"
assignedclass = "middle class"

[[record]]
compound = "N[C@@H](Cc1ccccc1)Cn1cc(-c2ccccc2)nn1"
assignedclass = "low class"

[[record]]
compound = "COc1cc(C(O)C2C=CC3C(=O)N(c4ccccc4)C(=O)C3N2Nc2ccc(C#N)cc2)cc(OC)c1OC (stereo not given)"
assignedclass = "high class"

[[record]]
compound = "COCC(=C=CC[C@@H](O)c1ccc(CO)o1)CCO"
assignedclass = "low class"

[[record]]
compound = "COc1ccc(CCNC(=O)[C@@]2(c3ccc([N+](=O)[O-])cc3)CC(=O)N(CC34CC5CC(CC(C5)C3)C4)[C@@H]2c2ccc(CO)cc2)cc1"
assignedclass = "high class"

[[record]]
compound = "COc1ccc(CCNC(=O)[C@@]2(Sc3ccc(C)cc3)CC(=O)N(Cc3ccccc3Cl)[C@@H]2c2ccc(CO)cc2I)cc1"
assignedclass = "low class"

[[record]]
compound = "CC(C)C(=C=CC[C@H](O)c1ccccc1OCCO)C[C@H](O)c1ccccn1"
assignedclass = "middle class"

[[record]]
compound = "O=C1N(CCS(=O)(=O)c2ccccc2)c2ccccc2C[C@@]12COC(c1ccc(OCCCO)cc1)=N2"
assignedclass = "middle class"

[[record]]
compound = "CN(C)CCCNC(=O)[C@@]1(Cc2ccccc2I)c2ccccc2C(=O)N(Cc2ccccc2C(F)(F)F)[C@H]1c1ccc(CO)cc1"
assignedclass = "low class"

[[record]]
compound = "COc1ccc([Si](C)(C)[C@@H]2[C@@H](CCn3cc([C@H](O)c4ccccc4)nn3)O[C@]3(C(=O)N(Cc4ccc(N5C(=O)c6cccc7cccc5c67)cc4)c4ccccc43)[C@H]2C)cc1"
assignedclass = "low class"

[[record]]
compound = "O=C(CS)NCCCCCCNC(=O)[C@@H]1C[C@@H]2C(=O)N3CCC[C@H]3C(=O)N2[C@@H]1c1ccc(O)cc1"
assignedclass = "high class"

[[record]]
compound = "C=CC[C@@]1(C(=O)O)N=C(c2ccc(OCCCO)cc2)O[C@@H]1c1ccccc1N=[N+]=[N-]"
assignedclass = "high class"

